test system: PPARg:RXRa 270nM:90nM, anti-RXR (NR concentration 270 nM, RXRa partner concentration 90 nM); experiment: PBM binding z-score (relative to random genomic background probes); higher = stronger binding; sequences stand for … in GC…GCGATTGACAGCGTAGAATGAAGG
Rule: 1 for PBM binding z-score not less than 3, 0 for anything less.

Quick check, PBM binding z-score >= 3? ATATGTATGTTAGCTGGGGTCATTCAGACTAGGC
0

Threshold query (PBM binding z-score >= 3) on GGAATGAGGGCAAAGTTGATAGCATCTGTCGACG
1

Check this sequence for PBM binding z-score at or above 3: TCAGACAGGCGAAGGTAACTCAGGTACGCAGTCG
0

Please indicate if the recorded PBM binding z-score for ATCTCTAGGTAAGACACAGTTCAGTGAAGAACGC meets or exceeds 3.
0

Does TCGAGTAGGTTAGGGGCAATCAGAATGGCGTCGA have a reported PBM binding z-score of at least 3?
0

Values were extracted from the supplement of paper PMC6555819.
